Assay: Pharmacokinetic evaluation of liquid bevirimat dosage forms, oral gavage, male Cynomolgus monkeys
Conditions: male, cynomolgus monkey, in vivo, po, 200 mg, pH 8
readout-kind: half-life

Tell me measured half-life for C=C(C)[C@@H]1CC[C@]2(C(=O)O)CC[C@]3(C)[C@H](CC[C@@H]4[C@@]5(C)CC[C@H](OC(=O)CC(C)(C)C(=O)O)C(C)(C)[C@@H]5CC[C@]43C)[C@@H]12 please.
498 min

---

Assay: Pharmacokinetic evaluation of liquid bevirimat dosage forms, oral gavage, male Cynomolgus monkeys
Settings: male, cynomolgus monkey, in vivo, po, 200 mg, pH 8
Text: Six male Cynomolgus monkeys having an initial body weight of about 3.5 to about 4.5 kg are allowed 7 days to acclimate to their individual housing units. Monkeys are supplied with water and a commercial diet ad libitum prior to the study initiation. Food is withheld from the monkeys for a minimum of twelve hours before the study and during the study until four hours postdose when food is returned. Water is supplied ad libitum. […]
readout-kind: AUC
Give the value; after it, write the unit.

Tell me measured AUC for C=C(C)[C@@H]1CC[C@]2(C(=O)O)CC[C@]3(C)[C@H](CC[C@@H]4[C@@]5(C)CC[C@H](OC(=O)CC(C)(C)C(=O)O)C(C)(C)[C@@H]5CC[C@]43C)[C@@H]12 please.
1970 µg·h/mL

Origin of measurements: patent US20100216751A1
